Test system: human hepatocellular carcinoma SMMC-7721 cell line
protocol-notes: MTT antiproliferative assay, SMMC-7721
Assay type: cell-based
recorded-conditions: Homo sapiens, SMMC-7721; MTT, 24 h, 1.0-100.0 μM; means ± SEM (n=3); read-out: IC50 SMMC-7721
recorded-endpoint: IC50

compound	test-target	recorded-endpoint	experimental-result
O=C1C=CC[C@H]([C@H](O)[C@H](O)c2ccccc2)O1 [Goniodiol]	human hepatocellular carcinoma SMMC-7721 cell line	IC50	> 100 µM
O=C1C=CC[C@H]([C@@H](O)[C@H](Oc2cc(O)c3c(c2)O[C@H](c2ccccc2)CC3=O)c2ccccc2)O1 [Leiocarpin B]	human hepatocellular carcinoma SMMC-7721 cell line	IC50	15.5 µM
CC(=O)OC(C1CC=CC(=O)O1)C1OC(C2CC=CC(=O)O2)C(c2ccccc2)c2ccccc21 (stereo not drawn) [Leiocarpin E-7′-monoacetate, leiocarpin E-7′-monoacetate]	human hepatocellular carcinoma SMMC-7721 cell line	IC50	61.7 µM
O=C1C=CC[C@H]([C@@H](O)[C@H]2O[C@H]([C@H]3CC=CC(=O)O3)[C@@H](c3ccccc3)c3ccccc32)O1 [Leiocarpin E]	human hepatocellular carcinoma SMMC-7721 cell line	IC50	> 100 µM
COc1cc([C@@H]2c3cc4c(cc3[C@@H](O[C@@H]3O[C@@H]5CO[C@@H](C)O[C@H]5[C@H](O)[C@H]3O)[C@H]3COC(=O)[C@H]23)OCO4)cc(OC)c1O [VP-16, Etoposide, reference compound]	human hepatocellular carcinoma SMMC-7721 cell line	IC50	> 100 µM
CC(=O)O[C@H]1C=CC(=O)O[C@H]1[C@H]1O[C@@H]1c1ccccc1 [Cheliensisin A]	human hepatocellular carcinoma SMMC-7721 cell line	IC50	> 100 µM

* * *

Known IC50 of a selection of compounds
Tested on: human hepatocellular carcinoma HepG2 cell line
protocol-notes: MTT antiproliferative assay, HepG2
Assay type: cell-based
recorded-conditions: 24 h, 1.0-100.0 μM, means ± SEM (n=3)

compound	IC50
O=C1C=CC[C@H]([C@@H](O)[C@H]2O[C@H]([C@H]3CC=CC(=O)O3)[C@@H](c3ccccc3)c3ccccc32)O1	> 100 µM
CC(=O)OC(C1CC=CC(=O)O1)C1OC(C2CC=CC(=O)O2)C(c2ccccc2)c2ccccc21 (stereo not drawn) [Leiocarpin E-7′-monoacetate, leiocarpin E-7′-monoacetate]	50.1 µM
O=C1C=CC[C@H]([C@H](O)[C@H](O)c2ccccc2)O1	> 100 µM
COc1cc([C@@H]2c3cc4c(cc3[C@@H](O[C@@H]3O[C@@H]5CO[C@@H](C)O[C@H]5[C@H](O)[C@H]3O)[C@H]3COC(=O)[C@H]23)OCO4)cc(OC)c1O [VP-16, Etoposide, reference compound]	> 100 µM
O=C1C=CC[C@H]([C@@H](O)[C@H](Oc2cc(O)c3c(c2)O[C@H](c2ccccc2)CC3=O)c2ccccc2)O1	19.3 µM
CC(=O)O[C@H]1C=CC(=O)O[C@H]1[C@H]1O[C@@H]1c1ccccc1	> 100 µM

* * *

Test system: human gastric cancer SGC-7901 cell line
protocol-notes: MTT antiproliferative assay, SGC-7901
Type: cell-based
recorded-conditions: 24 h, 1.0-100.0 μM, means ± SEM (n=3)
pIC50: −log10 of the molar value.
Known pIC50 of a selection of compounds

compound	pIC50
O=C1C=CC[C@H]([C@H](O)[C@H](O)c2ccccc2)O1	< 4.00
O=C1C=CC[C@H]([C@@H](O)[C@H]2O[C@H]([C@H]3CC=CC(=O)O3)[C@@H](c3ccccc3)c3ccccc32)O1	< 4.00
CC(=O)O[C@H]1C=CC(=O)O[C@H]1[C@H]1O[C@@H]1c1ccccc1	< 4.00
CC(=O)OC(C1CC=CC(=O)O1)C1OC(C2CC=CC(=O)O2)C(c2ccccc2)c2ccccc21 (stereo not drawn) [Leiocarpin E-7′-monoacetate, leiocarpin E-7′-monoacetate]	4.35
O=C1C=CC[C@H]([C@@H](O)[C@H](Oc2cc(O)c3c(c2)O[C@H](c2ccccc2)CC3=O)c2ccccc2)O1	4.74
COc1cc([C@@H]2c3cc4c(cc3[C@@H](O[C@@H]3O[C@@H]5CO[C@@H](C)O[C@H]5[C@H](O)[C@H]3O)[C@H]3COC(=O)[C@H]23)OCO4)cc(OC)c1O [VP-16, Etoposide, reference compound]	< 4.00
